Would you kindly list normalized RNA/DNA level with ligand (log10) for each of these variants?
B1: library; a variant is named by its letters at N, in order (parent)
chain: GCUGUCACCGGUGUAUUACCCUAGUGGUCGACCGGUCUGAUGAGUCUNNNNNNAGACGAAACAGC

Variants of: B1
Test: normalized RNA/DNA level with ligand (relative to sTRSVctl = 100) (log10 (% of sTRSVctl)); ligand: hypoxanthine (xanthine aptamer); higher = less ribozyme self-cleavage, higher mRNA level
Conditions: ligand concentration (+) RNA-Seq: 5 mM, HEK293T, reporter: mCherry (pCS4076), ligand present: yes
Answers are plain numbers.

// below: answered variants
>  <Sequence string>
GCUGUCACCGGUGUAUUACCCUAGUGGUCGACCGGUCUGAUGAGUCUUCCAGAAGACGAAACAGC [UCCAGA]

>  <Measurement>
1.93

$$$$
>  <Sequence string>
GCUGUCACCGGUGUAUUACCCUAGUGGUCGACCGGUCUGAUGAGUCUGAACGCAGACGAAACAGC [GAACGC]

>  <Measurement>
1.85

$$$$
>  <Sequence string>
GCUGUCACCGGUGUAUUACCCUAGUGGUCGACCGGUCUGAUGAGUCUGUUCGUAGACGAAACAGC [GUUCGU]

>  <Measurement>
1.98

$$$$
>  <Sequence string>
GCUGUCACCGGUGUAUUACCCUAGUGGUCGACCGGUCUGAUGAGUCUACACACAGACGAAACAGC [ACACAC]

>  <Measurement>
1.92

$$$$
>  <Sequence string>
GCUGUCACCGGUGUAUUACCCUAGUGGUCGACCGGUCUGAUGAGUCUGAAUCGAGACGAAACAGC [GAAUCG]

>  <Measurement>
1.84

$$$$
>  <Sequence string>
GCUGUCACCGGUGUAUUACCCUAGUGGUCGACCGGUCUGAUGAGUCUCGAAGAAGACGAAACAGC [CGAAGA]

>  <Measurement>
1.97

$$$$

List the reported normalized RNA/DNA level with ligand (log10) of each variant below.
1. GCUGUCACCGGUGUAUUACCCUAGUGGUCGACCGGUCUGAUGAGUCUGAUGGAAGACGAAACAGC [GAUGGA]
2. GCUGUCACCGGUGUAUUACCCUAGUGGUCGACCGGUCUGAUGAGUCUUAACAUAGACGAAACAGC [UAACAU]
3. GCUGUCACCGGUGUAUUACCCUAGUGGUCGACCGGUCUGAUGAGUCUCGUACAAGACGAAACAGC [CGUACA]
4. GCUGUCACCGGUGUAUUACCCUAGUGGUCGACCGGUCUGAUGAGUCUCGCAAGAGACGAAACAGC [CGCAAG]
5. GCUGUCACCGGUGUAUUACCCUAGUGGUCGACCGGUCUGAUGAGUCUGAGAAAAGACGAAACAGC [GAGAAA]
6. GCUGUCACCGGUGUAUUACCCUAGUGGUCGACCGGUCUGAUGAGUCUUAAGAGAGACGAAACAGC [UAAGAG]
7. GCUGUCACCGGUGUAUUACCCUAGUGGUCGACCGGUCUGAUGAGUCUCUAUACAGACGAAACAGC [CUAUAC]

A:
1. 1.91
2. 1.92
3. 1.92
4. 1.85
5. 1.88
6. 1.83
7. 1.95

List reported normalized RNA/DNA level with ligand (log10) for each of these variants:
1. GCUGUCACCGGUGUAUUACCCUAGUGGUCGACCGGUCUGAUGAGUCUUCAUAGAGACGAAACAGC [UCAUAG]
2. GCUGUCACCGGUGUAUUACCCUAGUGGUCGACCGGUCUGAUGAGUCUCGUUUUAGACGAAACAGC [CGUUUU]
3. GCUGUCACCGGUGUAUUACCCUAGUGGUCGACCGGUCUGAUGAGUCUGAUGUCAGACGAAACAGC [GAUGUC]
4. GCUGUCACCGGUGUAUUACCCUAGUGGUCGACCGGUCUGAUGAGUCUGAGAAUAGACGAAACAGC [GAGAAU]
5. GCUGUCACCGGUGUAUUACCCUAGUGGUCGACCGGUCUGAUGAGUCUCCGGGAAGACGAAACAGC [CCGGGA]
6. GCUGUCACCGGUGUAUUACCCUAGUGGUCGACCGGUCUGAUGAGUCUUUUCCGAGACGAAACAGC [UUUCCG]

A:
1: 1.89; 2: 1.92; 3: 1.95; 4: 1.91; 5: 1.97; 6: 1.99

Give me normalized RNA/DNA level with ligand (log10) for each of these variants, listed below.
1. GCUGUCACCGGUGUAUUACCCUAGUGGUCGACCGGUCUGAUGAGUCUGUUCUCAGACGAAACAGC [GUUCUC]
2. GCUGUCACCGGUGUAUUACCCUAGUGGUCGACCGGUCUGAUGAGUCUCCUCAAAGACGAAACAGC [CCUCAA]
3. GCUGUCACCGGUGUAUUACCCUAGUGGUCGACCGGUCUGAUGAGUCUUUUAUAAGACGAAACAGC [UUUAUA]
4. GCUGUCACCGGUGUAUUACCCUAGUGGUCGACCGGUCUGAUGAGUCUACCAGAAGACGAAACAGC [ACCAGA]
5. GCUGUCACCGGUGUAUUACCCUAGUGGUCGACCGGUCUGAUGAGUCUGUGUAAAGACGAAACAGC [GUGUAA]
6. GCUGUCACCGGUGUAUUACCCUAGUGGUCGACCGGUCUGAUGAGUCUGAUCUGAGACGAAACAGC [GAUCUG]
7. GCUGUCACCGGUGUAUUACCCUAGUGGUCGACCGGUCUGAUGAGUCUACUGAUAGACGAAACAGC [ACUGAU]
8. GCUGUCACCGGUGUAUUACCCUAGUGGUCGACCGGUCUGAUGAGUCUACCCUGAGACGAAACAGC [ACCCUG]

A:
1. 1.98
2. 1.93
3. 1.93
4. 1.95
5. 1.85
6. 1.92
7. 1.92
8. 1.88

Consider the following items and state reported normalized RNA/DNA level with ligand (log10) for each.
1. GCUGUCACCGGUGUAUUACCCUAGUGGUCGACCGGUCUGAUGAGUCUUUGAUCAGACGAAACAGC [UUGAUC]
2. GCUGUCACCGGUGUAUUACCCUAGUGGUCGACCGGUCUGAUGAGUCUAACUCCAGACGAAACAGC [AACUCC]

A:
1. 1.95
2. 2

For each of the variants below, note its normalized RNA/DNA level with ligand (log10).
1. GCUGUCACCGGUGUAUUACCCUAGUGGUCGACCGGUCUGAUGAGUCUAUUUUUAGACGAAACAGC [AUUUUU]
2. GCUGUCACCGGUGUAUUACCCUAGUGGUCGACCGGUCUGAUGAGUCUCAUGCUAGACGAAACAGC [CAUGCU]
3. GCUGUCACCGGUGUAUUACCCUAGUGGUCGACCGGUCUGAUGAGUCUAAAGCAAGACGAAACAGC [AAAGCA]
4. GCUGUCACCGGUGUAUUACCCUAGUGGUCGACCGGUCUGAUGAGUCUGCGUACAGACGAAACAGC [GCGUAC]
5. GCUGUCACCGGUGUAUUACCCUAGUGGUCGACCGGUCUGAUGAGUCUGUGAACAGACGAAACAGC [GUGAAC]
6. GCUGUCACCGGUGUAUUACCCUAGUGGUCGACCGGUCUGAUGAGUCUUCUUACAGACGAAACAGC [UCUUAC]

A:
1. 1.93
2. 1.97
3. 1.93
4. 1.82
5. 1.9
6. 1.94

Please go through the list and note normalized RNA/DNA level with ligand (log10) for each variant.
1. GCUGUCACCGGUGUAUUACCCUAGUGGUCGACCGGUCUGAUGAGUCUACCACGAGACGAAACAGC [ACCACG]
2. GCUGUCACCGGUGUAUUACCCUAGUGGUCGACCGGUCUGAUGAGUCUAUUAGUAGACGAAACAGC [AUUAGU]

A:
1.91
1.95

I would be grateful if you could provide normalized RNA/DNA level with ligand (log10) for each of the following entries.
1. GCUGUCACCGGUGUAUUACCCUAGUGGUCGACCGGUCUGAUGAGUCUUUCACAAGACGAAACAGC [UUCACA]
2. GCUGUCACCGGUGUAUUACCCUAGUGGUCGACCGGUCUGAUGAGUCUAACUCAAGACGAAACAGC [AACUCA]
3. GCUGUCACCGGUGUAUUACCCUAGUGGUCGACCGGUCUGAUGAGUCUCUCAGCAGACGAAACAGC [CUCAGC]
4. GCUGUCACCGGUGUAUUACCCUAGUGGUCGACCGGUCUGAUGAGUCUCGUAACAGACGAAACAGC [CGUAAC]
5. GCUGUCACCGGUGUAUUACCCUAGUGGUCGACCGGUCUGAUGAGUCUAGGGAUAGACGAAACAGC [AGGGAU]
6. GCUGUCACCGGUGUAUUACCCUAGUGGUCGACCGGUCUGAUGAGUCUACAAACAGACGAAACAGC [ACAAAC]
7. GCUGUCACCGGUGUAUUACCCUAGUGGUCGACCGGUCUGAUGAGUCUCAUCCUAGACGAAACAGC [CAUCCU]
8. GCUGUCACCGGUGUAUUACCCUAGUGGUCGACCGGUCUGAUGAGUCUCGGACAAGACGAAACAGC [CGGACA]

A:
1. 1.9
2. 1.97
3. 2
4. 1.95
5. 1.89
6. 1.93
7. 1.94
8. 1.9

Q: Field request: normalized RNA/DNA level with ligand (log10) | item: GCUGUCACCGGUGUAUUACCCUAGUGGUCGACCGGUCUGAUGAGUCUCCAGAUAGACGAAACAGC [CCAGAU]
A: 1.94
